system-tested: T1, AtPEX5C D505H-N601A (Arabidopsis thaliana, UniProt Q9FMA3 340-728, D505H | N601A)
T1 construct: Made by site-directed mutagenesis of His6-AtPEX5 (340-728) in pET-28b; source: E. coli BL21-Gold (DE3), purified (Co-NTA)
T1 sequence (looked up): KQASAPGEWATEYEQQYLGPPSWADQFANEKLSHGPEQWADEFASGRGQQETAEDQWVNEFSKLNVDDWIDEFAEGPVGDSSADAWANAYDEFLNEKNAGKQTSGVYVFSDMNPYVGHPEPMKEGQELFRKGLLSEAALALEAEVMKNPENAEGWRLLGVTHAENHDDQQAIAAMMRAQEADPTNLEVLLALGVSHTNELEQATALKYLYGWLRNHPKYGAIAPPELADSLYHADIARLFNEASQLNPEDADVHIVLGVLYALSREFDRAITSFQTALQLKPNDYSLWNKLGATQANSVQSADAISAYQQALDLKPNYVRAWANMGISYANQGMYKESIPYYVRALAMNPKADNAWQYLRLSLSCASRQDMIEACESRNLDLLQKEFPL
test-details: fluorescence polarisation; fluorescence anisotropy; AtPEX5C or variant serially diluted (from a 40 µM solution) against 100 nM lissamine-labelled peptide tracer; 20 mM HEPES, 150 mM NaCl, pH 7.5; gelatine-blocked 384-well plates; 25 °C, 20 min; fitted to a 1:1 binding model
study-conditions: both partners purified
Where no end group is shown, it is not given here.
measurement-kind: Kd

Q: Consider the binder {lissamine rhodamine B sulfonyl}-YQSKL (model PTS1 pentapeptide; also called lissamine-labelled YQSKL; model PTS1 peptide; source: synthetic peptide (Fmoc solid-phase synthesis, reverse phase HPLC)) [lissamine-YQSKL] and give its measured Kd.
Result: 108 nM

Q: Consider the binder {lissamine rhodamine B sulfonyl}-YQSYY (pentapeptide found in the YQSXX library screen; also called lissamine-labelled YQSYY; source: synthetic peptide (Fmoc solid-phase synthesis, reverse phase HPLC)) [lissamine-YQSYY] and give its measured Kd.
Result: 603 nM
